# study target: T1, Human CD3eg linker (human)
# T1 construct: Single chain: epsilon and gamma subunits of human CD3 joined by a 29-mer linker, Flag-tag at the C-terminus; also called recombinant human CD3
# T1 chain: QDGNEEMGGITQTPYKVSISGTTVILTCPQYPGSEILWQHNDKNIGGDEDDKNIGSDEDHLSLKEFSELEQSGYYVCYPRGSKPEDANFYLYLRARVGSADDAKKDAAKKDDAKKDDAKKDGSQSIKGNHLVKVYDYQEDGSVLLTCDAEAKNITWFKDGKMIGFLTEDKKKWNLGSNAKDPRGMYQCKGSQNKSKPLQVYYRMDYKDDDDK
# measurement notes: Biacore SPR, vs template H183/L072
value type: fold change of affinity (fold)

{"binder": "H183/L072 VH T28M (antibody, name in Kabat numbering, V domains shown) VH: QVQLVESGGGLVQPGRSLRLSCAASGFMFSNAWMHWVRQAPGKGLEWVAQIKDKGNAYAAYYAPSVKGRFTISRDDSKNSIYLQMNSLKTEDTAVYYCHYVHYASASTVLPAFGVDAWGQGTTVTVSS VL: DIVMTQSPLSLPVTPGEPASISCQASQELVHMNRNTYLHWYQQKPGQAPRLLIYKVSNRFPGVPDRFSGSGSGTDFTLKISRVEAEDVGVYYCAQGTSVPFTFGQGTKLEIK", "value reported": 0.8}
{"binder": "H183/L072 VH G26I (antibody, name in Kabat numbering, V domains shown) VH: QVQLVESGGGLVQPGRSLRLSCAASIFTFSNAWMHWVRQAPGKGLEWVAQIKDKGNAYAAYYAPSVKGRFTISRDDSKNSIYLQMNSLKTEDTAVYYCHYVHYASASTVLPAFGVDAWGQGTTVTVSS VL: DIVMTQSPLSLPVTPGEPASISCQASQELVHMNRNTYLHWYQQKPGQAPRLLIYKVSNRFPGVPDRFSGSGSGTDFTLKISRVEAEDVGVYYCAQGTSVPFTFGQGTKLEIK", "value reported": 0.5}
{"binder": "H183/L072 VH W33N (antibody, name in Kabat numbering, V domains shown) VH: QVQLVESGGGLVQPGRSLRLSCAASGFTFSNANMHWVRQAPGKGLEWVAQIKDKGNAYAAYYAPSVKGRFTISRDDSKNSIYLQMNSLKTEDTAVYYCHYVHYASASTVLPAFGVDAWGQGTTVTVSS VL: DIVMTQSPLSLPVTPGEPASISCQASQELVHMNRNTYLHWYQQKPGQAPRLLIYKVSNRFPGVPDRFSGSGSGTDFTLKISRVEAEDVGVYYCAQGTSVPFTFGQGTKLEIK", "value reported": 0}
{"binder": "H183/L072 VH H93P (antibody, name in Kabat numbering, V domains shown) VH: QVQLVESGGGLVQPGRSLRLSCAASGFTFSNAWMHWVRQAPGKGLEWVAQIKDKGNAYAAYYAPSVKGRFTISRDDSKNSIYLQMNSLKTEDTAVYYCPYVHYASASTVLPAFGVDAWGQGTTVTVSS VL: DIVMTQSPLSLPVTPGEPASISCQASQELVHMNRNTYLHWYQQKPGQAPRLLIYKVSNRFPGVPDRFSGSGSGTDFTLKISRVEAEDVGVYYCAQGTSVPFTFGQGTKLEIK", "value reported": 0}
{"binder": "H183/L072 VH S100aI (antibody, name in Kabat numbering, V domains shown) VH: QVQLVESGGGLVQPGRSLRLSCAASGFTFSNAWMHWVRQAPGKGLEWVAQIKDKGNAYAAYYAPSVKGRFTISRDDSKNSIYLQMNSLKTEDTAVYYCHYVHYASAITVLPAFGVDAWGQGTTVTVSS VL: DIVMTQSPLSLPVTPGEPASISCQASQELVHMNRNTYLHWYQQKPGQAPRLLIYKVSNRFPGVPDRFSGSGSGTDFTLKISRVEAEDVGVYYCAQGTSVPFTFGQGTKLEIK", "value reported": 1}
